# test.description: ATG_AP_1_CIS: Attagene CIS-FACTORIAL HepG2 Assay for human Activator Protein 1 (AP-1) (AID 2282931)
# conditions.used: HepG2 Attagene cis-factorial AP-1 reporter mRNA; actives raise or lower the signal
Activity calls are given as the source filed them. Rule for the calls: active = hit-call score of the fitted dose curve at least 0.9, where 1 is the maximum; inactive = score below 0.9.
quantity.kind: AC50

Specify AC50 for CS(=O)(=O)c1ccc(C(=O)C2C(=O)CCCC2=O)c([N+](=O)[O-])c1 and stop.
inactive

Specify AC50 for N#Cc1c[nH]cc1-c1cccc2c1OC(F)(F)O2 and stop.
inactive

Specify AC50 for COc1cc(OC)nc(NC(=O)NS(=O)(=O)c2ncccc2OCC(F)(F)F)n1 and stop.
inactive

Specify AC50 for Cc1cc(C)nc(Nc2ccccc2)n1 and stop.
30.4 µM (active)

Specify AC50 for CCOc1nc(C(Cl)(Cl)Cl)ns1 and stop.
inactive

---
Specify AC50 for COC(=O)c1c(C(F)F)nc(C(F)(F)F)c(C2=NCCS2)c1CC(C)C and stop.
inactive

Specify AC50 for CC(C)Nc1nc(Cl)nc(NC(C)C)n1 and stop.
inactive

Specify AC50 for CO/N=C(/C1=NOCCO1)c1ccccc1Oc1ncnc(Oc2ccccc2Cl)c1F and stop.
0.481 µM (active)

Specify AC50 for Cc1nc(N(C)C)nc(OC(=O)N(C)C)c1C and stop.
inactive
